# SYSTEM TESTED: T1, human IL-18BP (human, UniProt O95998 31-194)
# T1 construct: UniProt printed as 095998; also called hIL-18BP
# T1 sequence: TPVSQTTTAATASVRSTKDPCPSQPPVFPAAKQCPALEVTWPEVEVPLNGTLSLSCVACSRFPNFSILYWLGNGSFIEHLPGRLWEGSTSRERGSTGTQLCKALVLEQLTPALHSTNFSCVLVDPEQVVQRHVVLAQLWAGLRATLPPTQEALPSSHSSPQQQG
# MEASUREMENT NOTES: BLI, apparent KD
Consider the following binders and their measured Kd readings.
// note: answer is a bare numeric in nM

The cases that follow already have their Kd on record.
[
  {
    "BINDER": "SA301a HC-G97P (antibody, name in Kabat numbering, V domains shown, IgG1 kappa) VH: QVQLQESGPGLVKPSQTLSLTCTVSGYSITSDYNSHWIRQPPGKGLEWIGYIHYSGSTNYNPSLKSRVTISRDTSKNQFSLKLSSVTAADTAVYYCARNYPSIYVNYFDYWGQGTLVTVSS VL: EIVLTQSPATLSLSPGERATLSCSASSSVSYMYWYQQKPGQAPRPLIYRTSNLASGIPARFSGSGSGTDFTLTISSLEPEDFAVYYCQQYHSYPTFGGGTKVEIK",
    "ENDPOINT RESULT": 1.36
  },
  {
    "BINDER": "SA301a HC-S98T (antibody, name in Kabat numbering, V domains shown, IgG1 kappa) VH: QVQLQESGPGLVKPSQTLSLTCTVSGYSITSDYNSHWIRQPPGKGLEWIGYIHYSGSTNYNPSLKSRVTISRDTSKNQFSLKLSSVTAADTAVYYCARNYGTIYVNYFDYWGQGTLVTVSS VL: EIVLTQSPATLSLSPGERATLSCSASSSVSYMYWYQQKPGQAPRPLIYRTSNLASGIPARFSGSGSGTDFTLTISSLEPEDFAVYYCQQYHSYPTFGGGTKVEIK",
    "ENDPOINT RESULT": 26.9
  },
  {
    "BINDER": "SA301a HC-G97N (antibody, name in Kabat numbering, V domains shown, IgG1 kappa) VH: QVQLQESGPGLVKPSQTLSLTCTVSGYSITSDYNSHWIRQPPGKGLEWIGYIHYSGSTNYNPSLKSRVTISRDTSKNQFSLKLSSVTAADTAVYYCARNYNSIYVNYFDYWGQGTLVTVSS VL: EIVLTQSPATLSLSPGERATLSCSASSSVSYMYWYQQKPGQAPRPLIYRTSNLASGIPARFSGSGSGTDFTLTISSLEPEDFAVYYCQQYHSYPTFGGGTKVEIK",
    "ENDPOINT RESULT": 5.93
  }
]

Ask: Provide one value: measured Kd of SA301a HC-N95G (antibody, name in Kabat numbering, V domains shown, IgG1 kappa) VH: QVQLQESGPGLVKPSQTLSLTCTVSGYSITSDYNSHWIRQPPGKGLEWIGYIHYSGSTNYNPSLKSRVTISRDTSKNQFSLKLSSVTAADTAVYYCARGYGSIYVNYFDYWGQGTLVTVSS VL: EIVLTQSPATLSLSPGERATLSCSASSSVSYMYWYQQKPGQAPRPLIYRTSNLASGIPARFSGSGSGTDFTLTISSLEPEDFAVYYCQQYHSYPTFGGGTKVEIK
Reply: 0.17
